# Target: HEK cells stably transfected with tetracycline inducible hNR1 and hNR2A (Homo sapiens, UniProt Q05586+Q12879)
# Construct: expressed in transfected cells; host or cells: HEK cells, stably transfected, tetracycline/doxycycline inducible
# Sequence (Q12879 23-1464, other chains not shown): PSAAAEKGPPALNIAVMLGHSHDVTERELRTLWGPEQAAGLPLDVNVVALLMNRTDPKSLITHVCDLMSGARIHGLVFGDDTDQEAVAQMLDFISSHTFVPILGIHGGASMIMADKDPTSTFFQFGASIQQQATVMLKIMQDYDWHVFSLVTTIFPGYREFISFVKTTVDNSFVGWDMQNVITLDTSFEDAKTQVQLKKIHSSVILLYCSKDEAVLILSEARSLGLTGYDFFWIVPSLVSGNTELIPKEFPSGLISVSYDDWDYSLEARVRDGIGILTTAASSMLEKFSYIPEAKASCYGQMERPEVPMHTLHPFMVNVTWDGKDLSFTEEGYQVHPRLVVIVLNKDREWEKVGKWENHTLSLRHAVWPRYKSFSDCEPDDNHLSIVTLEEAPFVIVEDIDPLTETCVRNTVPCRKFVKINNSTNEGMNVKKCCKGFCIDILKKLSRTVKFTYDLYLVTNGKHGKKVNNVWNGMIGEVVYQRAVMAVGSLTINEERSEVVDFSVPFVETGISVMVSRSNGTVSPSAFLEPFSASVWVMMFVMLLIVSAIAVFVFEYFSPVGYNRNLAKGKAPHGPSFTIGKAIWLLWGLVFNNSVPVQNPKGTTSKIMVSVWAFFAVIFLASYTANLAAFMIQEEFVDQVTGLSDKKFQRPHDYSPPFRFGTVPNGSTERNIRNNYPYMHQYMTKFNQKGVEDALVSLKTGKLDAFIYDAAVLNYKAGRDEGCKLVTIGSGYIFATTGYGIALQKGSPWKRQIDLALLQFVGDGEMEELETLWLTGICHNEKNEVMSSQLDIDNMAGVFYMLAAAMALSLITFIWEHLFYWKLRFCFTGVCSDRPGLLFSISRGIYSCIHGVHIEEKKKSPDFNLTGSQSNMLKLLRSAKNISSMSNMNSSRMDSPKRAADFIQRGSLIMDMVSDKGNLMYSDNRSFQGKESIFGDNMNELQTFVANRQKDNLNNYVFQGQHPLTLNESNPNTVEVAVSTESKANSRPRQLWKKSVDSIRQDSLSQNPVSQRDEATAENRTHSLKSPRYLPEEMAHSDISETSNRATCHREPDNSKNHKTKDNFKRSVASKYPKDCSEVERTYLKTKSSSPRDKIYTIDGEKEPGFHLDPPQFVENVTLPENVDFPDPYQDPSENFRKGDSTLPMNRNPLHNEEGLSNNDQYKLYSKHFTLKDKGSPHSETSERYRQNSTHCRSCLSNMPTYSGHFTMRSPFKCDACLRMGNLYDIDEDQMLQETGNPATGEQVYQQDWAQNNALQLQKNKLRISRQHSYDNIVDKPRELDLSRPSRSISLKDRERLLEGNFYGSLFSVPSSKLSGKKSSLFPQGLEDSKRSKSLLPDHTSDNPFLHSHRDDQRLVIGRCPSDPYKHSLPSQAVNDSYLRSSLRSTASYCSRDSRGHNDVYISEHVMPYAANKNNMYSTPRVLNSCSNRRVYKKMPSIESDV
# Experiment: Assay 1: Cell-Based Assay, cytosolic calcium response to positive allosteric modulators (with 30 μM glycine and 300 nM L-glutamate, EC30)
# Setup conditions: Table 2; cytosolic calcium response, with 30 μM glycine and 300 nM L-glutamate (EC30); — = no plateau was reached
Measured metric: EC50 (µM)

Some entries whose results are on file:
CCN(Cc1cc(=O)n2c(CCCCO)c(C)sc2n1)c1ccc(F)cc1 [Example 13.3]
0.783
Cc1sc2nc(COc3ccc(F)cc3)cc(=O)n2c1C1CC1C#N (single isomer, unassigned) [Example 4.19]
9
Cc1ccc(C#N)cc1Cc1cc(=O)n2c([C@@H]3C[C@H]3CO)c(C)sc2n1 (relative stereo) [Example 20.6]
7.2
CCN(Cc1cc(=O)n2c(C(C)=O)c(C)sc2n1)c1ccc(F)cc1 [Example 10.3]
0.535

[a] CCCc1c(C)sc2nc(CN(CC)c3ccc(F)cc3)cc(=O)n12 [Example 5.41]
[b] CCN(Cc1cc(=O)n2c3c(sc2n1)CCN(C)C3)c1ccc(F)cc1 [Example 8.10]
[c] CCNC(=O)c1c(C)sc2nc(Cc3cccc(C(F)(F)F)c3F)cc(=O)n12 [Example 21.12]
Exercise: Rank descending by EC50. Give the labels in the order requested.
Key: b, c, a
(b: 12.5 µM, c: 6.7 µM, a: 2 µM)

* * *

# Target: HEK cells stably transfected with tetracycline inducible hNR1 and hNR2A (Homo sapiens, UniProt Q05586+Q12879)
# Construct: expressed in transfected cells; host or cells: HEK cells, stably transfected, tetracycline/doxycycline inducible
# Experiment: Assay 1: Cell-Based Assay, cytosolic calcium response to positive allosteric modulators (with 30 μM glycine and 300 nM L-glutamate, EC30)
# Setup conditions: Table 2; responses scaled relative to 100 μM L-glutamate maximal response (100%) and 0 μM L-glutamate (0%)
# Description: Assay 1: Cell-Based Assay HEK cells stably transfected with tetracycline inducible hNR1 and hNR2A were seeded into clear bottom 384 well poly-D-lysine coated plates (2.5×10^4 cells per well) in Minimum Essential Media (MEM; without L-) including 7.5 μg mL^−1 doxycycline and 500 μM (+)-ketamine. The cells were incubated at 37° C. in 5% CO2 for 24 h. […] Compounds were added after a 10 second baseline read and maximum level of relative fluorescence units (RFU) was measured over a 5 min period. […]
Measured metric: Max % (%)

CCN(Cc1cc(=O)n2c(-c3cccnc3N)c(C)sc2n1)c1ccc(F)cc1 [Example 5.11]
118
CCN(Cc1cc(=O)n2c(I)c(C)sc2n1)c1ccc(F)cc1 [Example 11.4]
103

[a] CCN(Cc1cc(=O)n2c(-c3ccnnc3)c(C)sc2n1)c1ccc(F)cc1 [Example 5.30]
[b] Cc1sc2nc(COc3ccc(F)cc3)cc(=O)n2c1C(=O)C(F)(F)F [Example 2.11]
[c] Cc1sc2nc(COc3ccc(F)cc3)cc(=O)n2c1C(=O)C1COC1 [Example 2.9]
Exercise: Rank descending by Max %. Give the labels in the order requested.
Key: a, b, c

[1] CCN(Cc1cc(=O)n2c(C(C)C)c(C)sc2n1)c1ccc(F)cc1 [Example 9.2]
[2] CCNC(=O)c1c(C)sc2nc(Cc3cccc(C#N)c3)cc(=O)n12 [Example 21.11]
[3] CCNC(=O)c1c(C2CC2)sc2nc(Cn3nc(C4CC4)cc3C(F)(F)F)cc(=O)n12 [Example 16.7]
[4] CCN(Cc1cc(=O)n2c(C(O)CCO)c(C)sc2n1)c1ccc(F)cc1 (single isomer, unassigned) [Example 12.4]
Exercise: Rank descending by Max %. Give the labels in the order requested.
Key: 4, 1, 3, 2
(4: 176%, 1: 117%, 3: 67.5%, 2: 47%)

[A] CCN(C)C(=O)c1c(C)sc2nc(Cc3cccc(C(F)(F)F)c3F)cc(=O)n12 [Example 22.2]
[B] CCN(Cc1cc(=O)n2c(C#N)c(C)sc2n1)c1ccccn1 [Example 7.7]
Exercise: Would you mind telling me which has the lower recorded Max % between A and B ? Identify your selection by its label.
Key: A

* * *

# Target: HEK cells stably transfected with tetracycline inducible hNR1 and hNR2A (Homo sapiens, UniProt Q05586+Q12879)
# Construct: expressed in transfected cells; host or cells: HEK cells, stably transfected, tetracycline/doxycycline inducible
# Experiment: Assay 1: Cell-Based Assay, cytosolic calcium response to positive allosteric modulators (with 30 μM glycine and 300 nM L-glutamate, EC30)
# Setup conditions: Table 2; responses scaled relative to 100 μM L-glutamate maximal response (100%) and 0 μM L-glutamate (0%)
Measured metric: Max % (%)

Some entries whose results are on file:
C=Cc1c(C)sc2nc(CN(CC)c3ccc(F)cc3)cc(=O)n12 [Example 5.53]
153
CCN(Cc1cc(=O)n2c(CSC)c(C)sc2n1)c1ccc(F)cc1 [Example 10.25]
165
Cc1sc2nc(Cn3nc(C(F)(F)F)cc3C3CC3)cc(=O)n2c1[C@@H]1C[C@H]1CO (relative stereo) [Example 15.11]
159

[I] CCN(Cc1cc(=O)n2c(C(O)CCO)c(C)sc2n1)c1ccc(F)cc1 (centres unmarked) [Example 12.1]
[II] Cc1sc2nc(COc3ccc(F)cc3)cc(=O)n2c1C(=O)NCCCO [Example 1.14]
Exercise: Could you kindly indicate whether I or II has the higher Max % value? Identify your selection by its label.
Key: I
(I: 166%, II: 42.7%)

[1] CCN(Cc1cc(=O)n2c(C#N)c(C)sc2n1)c1ccc(F)c(F)c1 [Example 7.1]
[2] Cc1sc2nc(COc3ccc(F)cc3)cc(=O)n2c1C(=O)NCC(F)(F)F [Example 1.5]
Exercise: Could you kindly indicate whether 1 or 2 has the higher Max % value? Identify your selection by its label.
Key: 1
(1: 184%, 2: 51.4%)

* * *

# Target: HEK cells stably transfected with tetracycline inducible hNR1 and hNR2A (Homo sapiens, UniProt Q05586+Q12879)
# Construct: expressed in transfected cells; host or cells: HEK cells, stably transfected, tetracycline/doxycycline inducible
# Experiment: Assay 1: Cell-Based Assay, cytosolic calcium response to positive allosteric modulators (with 30 μM glycine and 300 nM L-glutamate, EC30)
# Setup conditions: Table 2; cytosolic calcium response, with 30 μM glycine and 300 nM L-glutamate (EC30); — = no plateau was reached
pEC50: −log10 of the molar value.
Measured metric: pEC50

CCN(Cc1cc(=O)n2c(-c3cncc(Cl)c3)c(C)sc2n1)c1ccc(F)cc1 [Example 5.31]
5.57
CNC(=O)c1c(C)sc2nc(Cn3nc(C(F)(F)F)cc3C3CC3)cc(=O)n12 [Example 16.1]
5.64

[A] CCN(Cc1cc(=O)n2c(C3CCOCC3)c(C)sc2n1)c1ccc(F)cc1 [Example 9.4]
[B] CCNC(=O)c1c(C)sc2nc(Cc3cccc(C)c3F)cc(=O)n12 [Example 21.5]
[C] Cc1sc2nc(COc3ccccc3F)cc(=O)n2c1[C@@H]1C[C@H]1CO (relative stereo) [Example 4.12]
Exercise: Hey, can you sort those molecules up there by pEC50, smallest first? Give the labels in the order requested.
Key: C, B, A

[P] CCN(Cc1cc(=O)n2c(-c3cnn(C)c3)c(C)sc2n1)c1ccc(F)cc1 [Example 5.33]
[Q] Cc1sc2nc(Cn3ccc(C(F)(F)F)n3)cc(=O)n2c1[C@@H]1C[C@H]1CO (relative stereo) [Example 15.5]
Exercise: Would you mind telling me which has the lower recorded pEC50 between P and Q ? Identify your selection by its label.
Key: P
(P: 5.38, Q: 5.77)

* * *

# Target: HEK cells stably transfected with tetracycline inducible hNR1 and hNR2A (Homo sapiens, UniProt Q05586+Q12879)
# Construct: expressed in transfected cells; host or cells: HEK cells, stably transfected, tetracycline/doxycycline inducible
# Experiment: Assay 1: Cell-Based Assay, cytosolic calcium response to positive allosteric modulators (with 30 μM glycine and 300 nM L-glutamate, EC30)
# Setup conditions: Table 2; cytosolic calcium response, with 30 μM glycine and 300 nM L-glutamate (EC30); — = no plateau was reached
pEC50: −log10 of the molar value.
Measured metric: pEC50

Cc1sc2nc(Cc3cccc(C#N)c3)cc(=O)n2c1C1CC1CO (centres unmarked) [Example 20.1]
5.51
CCN(Cc1cc(=O)n2c(CCO)c(C)sc2n1)c1ccc(F)cc1 [Example 13.4]
6.11
CCN(Cc1cc(=O)n2c(CS(C)(=O)=O)c(C)sc2n1)c1ccc(F)cc1 [Example 10.15]
5.89
CCN(Cc1cc(=O)n2c(-c3nc(C)cs3)c(C)sc2n1)c1ccc(F)cc1 [Example 5.49]
4.89
Cc1sc2nc(Cn3nc(C#N)cc3C)cc(=O)n2c1[C@@H]1C[C@H]1CO (relative stereo) [Example 15.21]
5.80

[A] Cc1sc2nc(COc3ccc(F)cc3)cc(=O)n2c1C(C)O (centres unmarked) [Example 2.3]
[B] CCN(Cc1cc(=O)n2c(CCC(N)=O)c(C)sc2n1)c1ccc(F)cc1 [Example 13.6]
[C] CCN(Cc1cc(=O)n2c(-c3cncc(OC)c3)c(C)sc2n1)c1ccc(F)cc1 [Example 5.58]
Exercise: Hey, can you sort those molecules up there by pEC50, smallest first? Give the labels in the order requested.
Key: A, C, B
